molecular target: amyloid β protein (Homo sapiens, UniProt P05067); construct: the amyloid β protein (purchased from Peptide Laboratory) was dissolved in a potassium phosphate buffer (pH7.4); purchased Peptide Laboratory; experiment: β structure recognition of amyloid β protein (thioflavin T fluorescence); assay type: binding; details: test compound 1 μM; thioflavin T 3 μM; average of duplicated experiments
Sequence (P05067 672-711 limits assumed): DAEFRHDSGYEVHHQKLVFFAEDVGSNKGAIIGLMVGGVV
Outcome label depends on β Structure recognition (%) relative to 70%: at/above gives met, below gives not met.

# molecule, classAssignment
rows = [
    ("Nc1ccc(/N=N/c2ccccc2)cc1", "not met"),
    ("O=C([O-])c1cc(/C=C/c2ccc(/C=C/c3ccc(O)c(C(=O)[O-])c3)cc2)ccc1O.[Na+].[Na+] [Compound X34.2Na, reference compound]", "met"),
]

Lookup: Determine whether this molecule has β Structure recognition (%) no lower than 70%: CCN(CC)c1ccc(/N=C/c2ccc(N(CC)CC)cc2O)cc1 [Compound N-058]
Found: met

Lookup: Determine whether this molecule has β Structure recognition (%) no lower than 70%: CN(C)c1ccc(C=Cc2cccc[n+]2C)cc1.[I-] [SA-247]
Found: not met

Lookup: Determine whether this molecule has β Structure recognition (%) no lower than 70%: CN(C)c1ccc(C=Cc2cccc[n+]2C)cc1.[I-] [SA-213]
Found: not met
